- TARGET_SYSTEM: KRAS-G12D protein (Homo sapiens, UniProt P01116, G12D)
- Sequence (P01116 1-188 isoform P01116-2 G12D): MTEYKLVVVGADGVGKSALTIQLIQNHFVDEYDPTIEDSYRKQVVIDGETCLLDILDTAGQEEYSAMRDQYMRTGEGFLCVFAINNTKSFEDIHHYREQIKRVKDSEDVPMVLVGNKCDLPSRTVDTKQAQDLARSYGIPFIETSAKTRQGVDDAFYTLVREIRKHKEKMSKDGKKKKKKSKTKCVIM
- ASSAY_INFO: SOS-mediated nucleotide exchange assay (BODIPY-GDP / Tb-streptavidin TR-FRET)
- Format: biochemical
*1 amine or outer side, *2 acyl side, *3 side chain or, on linkers, in order; H or OH if unused. Where a SMILES comes first, the peptide text is derived from it. Bridges are numbered along the chain shown (N, C = ends). [ ]: non-standard residue; d: D form. Ala(pyrimidin-5-yl) = N[C@@H](Cc1cncnc1)C(=O)O; NMe3Pal(5-F) = CN[C@@H](Cc1cncc(F)c1)C(=O)O; X7 = C[C@H](N[*:1])C12CC(C(=O)[*:2])(C1)C2; X25 = O=C([C@H](Cc1ccc(F)nc1)N[*:1])[*:2]; X11 = CC(C)(F)CC[C@H](N[*:1])C(=O)[*:2]; Phe(2-F) = N[C@@H](Cc1ccccc1F)C(=O)O; NMe3Pal = CN[C@@H](Cc1cccnc1)C(=O)O; X1 = O=C(C12CC(CN[*:1])(C1)C2)[*:2]; Ala(cPr) = N[C@@H](CC1CC1)C(=O)O; NMeF = CN[C@@H](Cc1ccccc1)C(=O)O; PhLac = O=C(O)[C@@H](O)Cc1ccccc1; 3Pal = N[C@@H](Cc1cccnc1)C(=O)O; hLeu = CC(C)CC[C@H](N)C(=O)O; αMeC = C[C@](N)(CS)C(=O)O; NMeA = CN[C@@H](C)C(=O)O; Nle = CCCC[C@H](N)C(=O)O; Nva = CCC[C@H](N)C(=O)O
Each record here notes measured EC50.
Just the number please, in µM, no unit attached.

// solved cases for EC50 follow
COMPOUND	EC50 [µM]
CCC[C@@H]1NC(=O)[C@H](Cc2ccc(O)cc2)NC(=O)[C@H](CC(C)C)NC(=O)[C@H](Cc2ccc(O)cc2)NC(=O)[C@H](CCCNC(=N)N)NC(=O)[C@H](Cc2ccccc2)NC(=O)CCCNC(=O)[C@H](Cc2ccccc2)N(C)C1=O	2.84
CCCC[C@@H]1NC(=O)[C@H](Cc2cncnc2)NC(=O)[C@H](C)N(C)C(=O)[C@H](Cc2ccccc2)OC(=O)C23CC(C2)(C3)[C@H](C)NC(=O)[C@H](Cc2cccnc2)N(C)C(=O)[C@H](CCCC)NC(=O)[C@H](Cc2ccccc2F)NC1=O [compound 121] (cyclo([NMe3Pal][X7][PhLac][NMeA][Ala(pyrimidin-5-yl)][Nle][Phe(2-F)][Nle]))	0.0335
CCCC[C@@H]1NC(=O)[C@H](Cc2cccnc2)NC(=O)[C@H](CCCNC(=N)N)NC(=O)[C@H](Cc2ccccc2)NC(=O)CSC[C@@](C)(C(N)=O)NC(=O)[C@H](Cc2ccccc2)N(C)C(=O)[C@H](CCCC)NC(=O)[C@H](Cc2ccccc2F)NC1=O [compound 160] ({CH2CO}-FR[3Pal][Nle][Phe(2-F)][Nle][NMeF][αMeC]-NH2; thioether N-8)	0.0128
CCCC[C@@H]1NC(=O)[C@H](Cc2ccc(F)nc2)NC(=O)[C@H](C)N(C)C(=O)[C@H](Cc2ccccc2)OC(=O)C23CC(CNC(=O)[C@H](Cc4ccccc4)N(C)C(=O)[C@H](CCC)NC(=O)[C@H](Cc4ccccc4F)NC1=O)(C2)C3 [compound 234] (cyclo([NMeA][X25][Nle][Phe(2-F)][Nva][NMeF][X1][PhLac]))	0.997
C[C@H]1C(=O)N[C@@H](Cc2cccnc2)C(=O)N[C@@H](CC2CC2)C(=O)N[C@@H](Cc2ccccc2F)C(=O)N[C@@H](CCC(C)(C)F)C(=O)N(C)[C@@H](Cc2cncc(F)c2)C(=O)NCC23CC(C2)(C3)C(=O)O[C@@H](Cc2ccccc2)C(=O)N1C [compound 284] (cyclo([3Pal][Ala(cPr)][Phe(2-F)][X11][NMe3Pal(5-F)][X1][PhLac][NMeA]))	0.002

Now take the following compound into account.
Request: Report EC50 for CCCC[C@@H]1NC(=O)[C@H](Cc2ccccc2F)NC(=O)[C@H](CCC(C)C)NC(=O)[C@H](Cc2cncnc2)NC(=O)[C@H](C)N(C)C(=O)[C@H](Cc2ccccc2)OC(=O)C23CC(CNC(=O)[C@H](Cc4cccnc4)N(C)C1=O)(C2)C3 [compound 127] (cyclo([NMe3Pal][X1][PhLac][NMeA][Ala(pyrimidin-5-yl)][hLeu][Phe(2-F)][Nle])) please.
Result: 0.228

---

- TARGET_SYSTEM: KRAS-G12D protein (Homo sapiens, UniProt P01116, G12D)
- ASSAY_INFO: SOS-mediated nucleotide exchange assay (BODIPY-GDP / Tb-streptavidin TR-FRET)
- Format: biochemical
*1 amine or outer side, *2 acyl side, *3 side chain or, on linkers, in order; H or OH if unused. Where a SMILES comes first, the peptide text is derived from it. Bridges are numbered along the chain shown (N, C = ends). [ ]: non-standard residue; d: D form. NMeNva(5-imidazol-1-yl) = CN[C@@H](CCCn1ccnc1)C(=O)O; Phe(2-F) = N[C@@H](Cc1ccccc1F)C(=O)O; NMe3Pal = CN[C@@H](Cc1cccnc1)C(=O)O; X1 = O=C(C12CC(CN[*:1])(C1)C2)[*:2]; Aha = [N-]=[N+]=NCC[C@H](N)C(=O)O; NMeF = CN[C@@H](Cc1ccccc1)C(=O)O; 3Pal = N[C@@H](Cc1cccnc1)C(=O)O; Ahp(2) = CCCCC[C@H](N)C(=O)O; Cba = N[C@@H](CC1CCC1)C(=O)O; αMeC = C[C@](N)(CS)C(=O)O; NMeA = CN[C@@H](C)C(=O)O; Nle = CCCC[C@H](N)C(=O)O
RECORDED_METRIC: EC50
# number then unit; no other words

// solved cases for EC50 follow
COMPOUND	TARGET_SYSTEM	EC50
CCCCC[C@@H]1NC(=O)[C@H](Cc2ccc(OC)cc2)NC(=O)[C@H](CC2CCC2)NC(=O)[C@H](Cc2cccnc2)NC(=O)[C@H](C)N(C)C(=O)[C@H](Cc2ccccc2)NC(=O)CSC[C@@](C)(C(N)=O)NC(=O)[C@H](Cc2ccccc2)N(C)C1=O [compound 158] ({CH2CO}-F[NMeA][3Pal][Cba]Y(Me)[Ahp(2)][NMeF][αMeC]-NH2; thioether N-8)	KRAS-G12D protein (Homo sapiens, UniProt P01116, G12D)	146 nM
CCCC[C@@H]1NC(=O)[C@H](C(C)C)NC(=O)[C@H](CC2CCC2)NC(=O)[C@H](Cc2cccnc2)NC(=O)[C@H](CCN=[N+]=[N-])NC(=O)[C@H](Cc2ccccc2)NC(=O)C23CC(CNC(=O)[C@H](Cc4cccnc4)N(C)C1=O)(C2)C3 [compound 113] (cyclo(F[Aha][3Pal][Cba]V[Nle][NMe3Pal][X1]))	KRAS-G12D protein (Homo sapiens, UniProt P01116, G12D)	6560 nM

Request: Report EC50 for CCCC[C@@H]1NC(=O)[C@H](Cc2cccnc2)NC(=O)[C@H](CCCn2ccnc2)N(C)C(=O)[C@H](Cc2ccccc2)NC(=O)C23CC(CNC(=O)[C@H](Cc4cccnc4)N(C)C(=O)[C@H](CCCC)NC(=O)[C@H](Cc4ccccc4F)NC1=O)(C2)C3 [compound 265] (cyclo(F[NMeNva(5-imidazol-1-yl)][3Pal][Nle][Phe(2-F)][Nle][NMe3Pal][X1])) please.
Result: 90.9 nM

---

- TARGET_SYSTEM: KRAS-G12D protein (Homo sapiens, UniProt P01116, G12D)
- ASSAY_INFO: SOS-mediated nucleotide exchange assay (BODIPY-GDP / Tb-streptavidin TR-FRET)
- Assay type: biochemical
*1 amine or outer side, *2 acyl side, *3 side chain or, on linkers, in order; H or OH if unused. Where a SMILES comes first, the peptide text is derived from it. [ ]: non-standard residue; d: D form. X25 = O=C([C@H](Cc1ccc(F)nc1)N[*:1])[*:2]; Phe(2-F) = N[C@@H](Cc1ccccc1F)C(=O)O; NMe3Pal = CN[C@@H](Cc1cccnc1)C(=O)O; X1 = O=C(C12CC(CN[*:1])(C1)C2)[*:2]; NMeF = CN[C@@H](Cc1ccccc1)C(=O)O; PhLac = O=C(O)[C@@H](O)Cc1ccccc1; 3Pal = N[C@@H](Cc1cccnc1)C(=O)O; Ala(CN) = N#CC[C@H](N)C(=O)O; NMeA = CN[C@@H](C)C(=O)O; Nle = CCCC[C@H](N)C(=O)O; Nva = CCC[C@H](N)C(=O)O
RECORDED_METRIC: pEC50
Field pEC50 (float): negative decimal logarithm of the concentration in molar.

Request: Report pEC50 for CCCC[C@@H]1NC(=O)[C@H](Cc2cccnc2)NC(=O)[C@H](C)N(C)C(=O)[C@H](Cc2ccccc2)OC(=O)C23CC(CNC(=O)[C@H](Cc4cccnc4)N(C)C(=O)[C@H](CCC)NC(=O)[C@H](Cc4ccccc4F)NC1=O)(C2)C3 [compound 116] (cyclo([3Pal][Nle][Phe(2-F)][Nva][NMe3Pal][X1][PhLac][NMeA])) please.
Result: 6.81

Request: Report pEC50 for CCCC[C@@H]1NC(=O)[C@H](Cc2cccnc2)NC(=O)[C@H](CC#N)NC(=O)[C@H](Cc2ccccc2)OC(=O)C23CC(CNC(=O)[C@H](Cc4cccnc4)N(C)C(=O)[C@H](CCCC)NC(=O)[C@H](Cc4ccccc4F)NC1=O)(C2)C3 [compound 252] (cyclo([3Pal][Nle][Phe(2-F)][Nle][NMe3Pal][X1][PhLac][Ala(CN)])) please.
Result: 5.43

Request: Report pEC50 for CCCC[C@@H]1NC(=O)[C@H](Cc2ccc(F)nc2)NC(=O)[C@H](C)N(C)C(=O)[C@H](Cc2ccccc2)OC(=O)C23CC(CNC(=O)[C@H](Cc4ccccc4)N(C)C(=O)[C@H](CCCC)NC(=O)[C@H](Cc4ccccc4F)NC1=O)(C2)C3 [compound 231] (cyclo([NMeA][X25][Nle][Phe(2-F)][Nle][NMeF][X1][PhLac])) please.
Result: 7.14

// data source = patent US20260001914A1
